- TESTED_TARGET: CYP2D6 (Homo sapiens, UniProt P10635)
- Sequence (P10635 whole entry): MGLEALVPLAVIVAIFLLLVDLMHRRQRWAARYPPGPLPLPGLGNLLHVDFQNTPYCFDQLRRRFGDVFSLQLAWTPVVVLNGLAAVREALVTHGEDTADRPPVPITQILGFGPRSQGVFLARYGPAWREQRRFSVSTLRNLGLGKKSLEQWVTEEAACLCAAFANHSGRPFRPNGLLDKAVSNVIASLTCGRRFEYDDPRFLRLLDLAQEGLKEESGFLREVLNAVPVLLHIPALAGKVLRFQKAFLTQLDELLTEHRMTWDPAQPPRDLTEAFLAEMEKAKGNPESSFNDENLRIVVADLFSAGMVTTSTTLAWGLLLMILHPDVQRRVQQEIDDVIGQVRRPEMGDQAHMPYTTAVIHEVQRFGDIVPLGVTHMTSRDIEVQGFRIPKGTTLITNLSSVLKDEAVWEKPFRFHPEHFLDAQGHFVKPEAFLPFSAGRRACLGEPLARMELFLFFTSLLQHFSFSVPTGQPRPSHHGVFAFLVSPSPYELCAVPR
- ASSAY_NAME: CYP inhibition assay, CYP2D6
- Format: in vitro ADME
- ASSAY_CONTEXT: 1 μM
PROPERTY_LABEL: inhibition at 1 µM (%)
Give just the number in %; leave the unit off.

Lookup: Tell us which inhibition at 1 µM value is on record for N[C@@]1(c2ccccc2Cl)CCC[C@@H](O)C1=O [2R,6R-hydroxynorketamine]
Found: 6.65

----------
- TESTED_TARGET: CYP2C8 (Homo sapiens, UniProt P10632)
- Sequence (P10632 whole entry): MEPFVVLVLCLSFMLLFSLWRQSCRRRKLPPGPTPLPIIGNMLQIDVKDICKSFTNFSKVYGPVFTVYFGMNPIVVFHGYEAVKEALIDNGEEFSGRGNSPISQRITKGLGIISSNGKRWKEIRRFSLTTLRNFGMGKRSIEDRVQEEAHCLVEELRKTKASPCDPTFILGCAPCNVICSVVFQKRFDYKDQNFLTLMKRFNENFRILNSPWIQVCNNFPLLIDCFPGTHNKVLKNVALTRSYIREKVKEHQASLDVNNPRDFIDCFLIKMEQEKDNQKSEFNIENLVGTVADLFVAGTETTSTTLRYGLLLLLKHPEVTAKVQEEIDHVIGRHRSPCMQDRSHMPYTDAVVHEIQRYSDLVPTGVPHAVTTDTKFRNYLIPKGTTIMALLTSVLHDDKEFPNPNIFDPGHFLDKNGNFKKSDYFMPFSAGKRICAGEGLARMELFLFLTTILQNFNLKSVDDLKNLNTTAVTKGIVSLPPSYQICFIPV
- ASSAY_NAME: CYP inhibition assay, CYP2C8
- Type: in vitro ADME
- ASSAY_CONTEXT: human; 10 μM
PROPERTY_LABEL: inhibition at 10 µM (%)
Please give a number only; it is taken to be in %.

Lookup: Provide the reported inhibition at 10 µM (system: CYP2C8 (Homo sapiens, UniProt P10632)) for N[C@@]1(c2ccccc2Cl)CCC[C@@H](O)C1=O [2R,6R-hydroxynorketamine]
Found: 8.33

----------
- ASSAY_NAME: in vitro
- ASSAY_CONTEXT: human, Caco-2, Direction = B2A Mean Papp, Caco-2, B2A, mean, n 2
PROPERTY_LABEL: Papp B→A (×10⁻⁶ cm/s)
Form entry: value (×10⁻⁶ cm/s) — number only.

Lookup: Give recorded Papp B→A. N[C@@]1(c2ccccc2Cl)CCC[C@@H](O)C1=O [2R,6R-hydroxynorketamine]
Found: 50.7

----------
Reported recovery is given for each of the following compounds.
- ASSAY_NAME: in vitro
- ASSAY_CONTEXT: human, Caco-2, Direction = B2A Mean % Recovery, Caco-2, B2A
# value in %; strip the unit string

N[C@@]1(c2ccccc2Cl)CCC[C@@H](O)C1=O [2R,6R-hydroxynorketamine] = 103

Lookup: # return recorded recovery for input CC(C)NCC(O)COc1cccc2ccccc12 (centres unmarked) [propranolol, reference compound]
Found: 82.8

----------
- TESTED_TARGET: CYP2C9 (Homo sapiens)
- Sequence (P11712 whole entry): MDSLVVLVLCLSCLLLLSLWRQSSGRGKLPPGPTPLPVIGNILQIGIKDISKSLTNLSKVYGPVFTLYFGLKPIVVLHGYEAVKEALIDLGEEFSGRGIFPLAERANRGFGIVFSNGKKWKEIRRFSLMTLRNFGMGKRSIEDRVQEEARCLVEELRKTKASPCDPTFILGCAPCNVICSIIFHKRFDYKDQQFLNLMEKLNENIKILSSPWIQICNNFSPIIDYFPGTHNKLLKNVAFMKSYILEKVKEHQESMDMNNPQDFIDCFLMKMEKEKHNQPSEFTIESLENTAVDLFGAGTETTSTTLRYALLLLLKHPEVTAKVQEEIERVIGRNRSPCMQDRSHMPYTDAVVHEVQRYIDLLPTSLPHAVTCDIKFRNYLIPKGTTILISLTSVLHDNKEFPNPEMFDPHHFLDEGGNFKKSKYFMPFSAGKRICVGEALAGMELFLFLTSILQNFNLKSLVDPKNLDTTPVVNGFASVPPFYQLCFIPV
- ASSAY_NAME: CYP inhibition assay, CYP2C9
- Assay type: in vitro ADME
- ASSAY_CONTEXT: human; 0.4 μM
PROPERTY_LABEL: inhibition at 0.4 µM (%)
Give the quantity in %, number only.

Lookup: Item N[C@@]1(c2ccccc2Cl)CCC[C@@H](O)C1=O [2R,6R-hydroxynorketamine] : provide inhibition at 0.4 µM
Found: 4.59

----------
- TESTED_TARGET: CYP2C19 (Homo sapiens)
- Sequence (P33261 whole entry): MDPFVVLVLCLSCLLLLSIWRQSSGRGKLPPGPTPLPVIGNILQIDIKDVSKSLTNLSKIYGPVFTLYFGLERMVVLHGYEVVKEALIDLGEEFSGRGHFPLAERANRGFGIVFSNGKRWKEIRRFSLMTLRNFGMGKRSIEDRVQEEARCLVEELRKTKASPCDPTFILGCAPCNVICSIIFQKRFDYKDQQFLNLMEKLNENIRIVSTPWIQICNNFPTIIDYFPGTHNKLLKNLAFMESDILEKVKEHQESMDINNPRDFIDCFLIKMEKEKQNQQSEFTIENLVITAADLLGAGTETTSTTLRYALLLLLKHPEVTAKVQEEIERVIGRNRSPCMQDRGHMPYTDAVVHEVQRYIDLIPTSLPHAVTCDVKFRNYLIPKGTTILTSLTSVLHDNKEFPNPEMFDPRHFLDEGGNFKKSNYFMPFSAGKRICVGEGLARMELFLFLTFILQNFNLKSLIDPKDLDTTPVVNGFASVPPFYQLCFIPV
- ASSAY_NAME: CYP inhibition assay, CYP2C19
- Assay type: in vitro ADME
- ASSAY_CONTEXT: human; 4 μM
PROPERTY_LABEL: inhibition at 4 µM (%)
# number only, unit % dropped from output

Lookup: Consider the compound N[C@@]1(c2ccccc2Cl)CCC[C@@H](O)C1=O [2R,6R-hydroxynorketamine] and give its recorded inhibition at 4 µM.
Found: 1.85

----------
- TESTED_TARGET: CYP2B6 (Homo sapiens)
- Sequence (P20813 1-491): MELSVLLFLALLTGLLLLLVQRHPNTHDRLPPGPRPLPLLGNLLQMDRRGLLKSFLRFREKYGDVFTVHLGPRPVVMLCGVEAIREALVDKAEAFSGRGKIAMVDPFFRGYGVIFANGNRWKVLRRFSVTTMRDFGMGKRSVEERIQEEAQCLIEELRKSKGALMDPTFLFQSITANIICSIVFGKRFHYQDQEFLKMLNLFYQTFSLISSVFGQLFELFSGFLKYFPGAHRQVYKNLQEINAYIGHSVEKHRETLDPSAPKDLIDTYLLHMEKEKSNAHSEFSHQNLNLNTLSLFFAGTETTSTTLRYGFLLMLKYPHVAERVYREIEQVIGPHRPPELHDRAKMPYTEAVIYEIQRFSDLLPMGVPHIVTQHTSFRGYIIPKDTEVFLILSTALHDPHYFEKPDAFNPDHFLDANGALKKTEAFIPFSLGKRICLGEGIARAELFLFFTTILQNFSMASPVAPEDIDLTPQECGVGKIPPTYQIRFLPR
- ASSAY_NAME: CYP inhibition assay, CYP2B6
- Assay type: in vitro ADME
- ASSAY_CONTEXT: human; 10 μM
PROPERTY_LABEL: inhibition at 10 µM (%)
# number only, unit % dropped from output

Lookup: Please look at this compound and report its inhibition at 10 µM: N[C@@]1(c2ccccc2Cl)CCC[C@@H](O)C1=O [2R,6R-hydroxynorketamine]
Found: 14.4

Data provenance is patent US20190380978A1.
